test: Wnt pathway potentiators raising nuclear beta-catenin – imaging, WNT3A-conditioned medium, mouse C2C12, NPC library, primary screen (AID 1117326); conditions: at 10 µM, stronger effect = higher value; further: reference of the scale not given here
Calls of active or inactive are those of the source. No stated cut-off is given here; in the data, active means nuclear beta-catenin stimulation mostly above about 4.2% (no sharp cut-off); inactive means mostly below about 10%.
nuclear beta-catenin stimulation for assorted compounds

// below: answered compounds
>>> result("CN1CCN2c3ccccc3Cc3ccccc3C2C1 (stereo not given)")
"0.3% (inactive)"
>>> result("CC(=O)OCC(=O)[C@@]1(O)[C@H](OC(C)=O)C[C@H]2[C@@H]3CCC4=CC(=O)C=C[C@]4(C)[C@@]3(F)[C@@H](O)C[C@@]21C")
"0.9% (inactive)"
>>> result("O=C(NC(Cc1cc(=O)[nH]c2ccccc12)C(=O)O)c1ccc(Cl)cc1 (stereo not given)")
"-0.8% (inactive)"

Prompt line: Fill in the blank: the reported nuclear beta-catenin stimulation of CCOc1cc(CC(=O)N[C@@H](CC(C)C)c2ccccc2N2CCCCC2)ccc1C(=O)O is ____.
Response line: -1.5% (inactive)

Prompt line: Now give it for Cc1c(N(C)CS(=O)(=O)O)c(=O)n(-c2ccccc2)n1C too.
Response line: -0.4% (inactive)

Prompt line: Now give it for O=c1ccc2ccccc2o1 too.
Response line: -0.2% (inactive)

Prompt line: Now give it for CO[C@@H]1[C@@H](OC(N)=O)[C@@H](O)[C@H](Oc2ccc3c(O)c(NC(=O)c4ccc(O)c(CC=C(C)C)c4)c(=O)oc3c2C)OC1(C)C too.
Response line: -0.7% (inactive)

Prompt line: Now give it for O=c1oc2c(O)c(O)cc3c(=O)oc4c(O)c(O)cc1c4c23 too.
Response line: -1.4% (inactive)

Prompt line: Now give it for OC(CCN1CCCCC1)(c1ccccc1)c1ccccc1 too.
Response line: 0.4% (inactive)

Prompt line: Now give it for CN1CCN(CC(=O)N2c3ccccc3C(=O)Nc3cccnc32)CC1 too.
Response line: 1.7% (inactive)

* * *

nuclear beta-catenin stimulation for assorted molecules
test: Wnt pathway potentiators raising nuclear beta-catenin – imaging, WNT3A-conditioned medium, mouse C2C12, NPC library, primary screen (AID 1117326); settings: stimulation, at 2 µM, stronger effect = higher value; further: reference of the scale not given here
Please state the figure in %; there is no need to write the unit.

>>> result("CC[N+](C)(C)Cc1ccccc1Br")
0.3

Prompt line: Fill in the blank: the reported nuclear beta-catenin stimulation of Cc1cc(=O)[nH]c(=S)[nH]1 is ____.
Response line: -0.4

Prompt line: Now give it for CCN(CC)CCNc1ccc(CO)c2sc3ccccc3c(=O)c12 too.
Response line: 1.8

Prompt line: Now give it for Nc1nccs1 too.
Response line: 0.3

Prompt line: Now give it for NCCCC(=O)O too.
Response line: 1.9

Prompt line: Now give it for CC(=O)OCC(=O)NCCCOc1cccc(CN2CCCCC2)c1 too.
Response line: 0.4

Prompt line: Now give it for CNC[C@H](O)c1ccc(O)c(O)c1 too.
Response line: 0.2

Prompt line: Now give it for CN1CCN2c3ccccc3Cc3ccccc3C2C1 (configuration not stated) too.
Response line: -0.9

Prompt line: Now give it for CCOc1ccc(NC(C)=O)cc1 too.
Response line: -0.9

Prompt line: Now give it for Cc1ccc(C(C)C)cc2c(C)ccc1-2 too.
Response line: 0.2

Prompt line: Now give it for CCCCOc1ccc(OCCCN2CCOCC2)cc1 too.
Response line: 0.4

Prompt line: Now give it for CCOC(=O)OC(C)OC(=O)[C@@H]1N2C(=O)[C@@H](NC(=O)[C@H](N)c3ccccc3)[C@H]2SC1(C)C (some centres not stated) too.
Response line: 2.5

Prompt line: Now give it for C[N+]1(CCCCC[N+]2(C)CCCC2)CCCC1 too.
Response line: 0.5

Prompt line: Now give it for Cc1c(Nc2ncccc2C(=O)O)cccc1C(F)(F)F too.
Response line: -0.2

Prompt line: Now give it for CCN(CC)C(=O)c1cccc(C)c1 too.
Response line: 3.9

Prompt line: Now give it for CC1(C)NC(=O)N(c2ccc([N+](=O)[O-])c(C(F)(F)F)c2)C1=O too.
Response line: 2.1

Prompt line: Now give it for CC1=C(C(=O)O)N2C(=O)[C@@H](NC(=O)[C@H](N)C3=CCC=CC3)[C@H]2SC1 too.
Response line: -2.4

Prompt line: Now give it for NC(=O)NC(=O)Cc1ccccc1 too.
Response line: -0.4

Prompt line: Now give it for CN1CCCN=C1COC(=O)C(O)(c1ccccc1)C1CCCCC1 (configuration not stated) too.
Response line: 1.9

Prompt line: Now give it for CCCCCN(C)CCC(O)(P(=O)(O)O)P(=O)(O)O too.
Response line: 0.2

Prompt line: Now give it for CC(=O)Nc1cccc(O)c1 too.
Response line: 2.5
